measured target: S protein of the novel coronavirus SARS-CoV-2 (SARS-CoV-2, UniProt P0DTC2 14-1273)
experimental details: cell-based or functional assay
readout label: IC50 for neutralizing SARS-CoV-2 pseudovirus (Huh-7 cells, luciferase)

1) ABU-352 (antibody, V domains shown) VH: EVQLVESGGGLIQPGGSLRLSCAASGLTVSSNYMTWVRQAPGKGLEWVSVIYSGGSTFYADSVKGRFTISRHNSKNTLYLQMNSLRAEDTAVYYCARDAMSYGMDVWGQGTTVTVSS VL: DIQMTQSPSSLSASVGDRVTITCRASQSISNFLNWYQQKPGKAPKLLIYAASSLQSGVPSRFSGSGSGTGFTLTISSLQPEDFATYYCQQSYSTPPDTFGQGTRLEIK : < 0.1 µg/mL
2) ABU-373 (antibody, V domains shown) VH: EVQLVESGGGLIQPGGSLRLSCAASGITVSSNYMSWVRQAPGKGLEWVSVIYSGGSTYYADSVKGRFTISRDNSKNTLYLQMNSLRAEDTAVYYCARGGAYYYGMDVWGQGTTVTVSS VL: DIQLTQSPSFLSASVGDRVTITCRASQGISSYLAWYQQKPGKAPKLLIYAASTLQSGVPSRFSGSGSGTEFTLTISSLQPEDFATYYCQQLNTYPPFGFGPGTKVDIK : < 0.5 µg/mL
